test target: ΔF508-CFTR (Homo sapiens, UniProt P13569, DEL508-508)
Sequence (P13569 with tags, fused parts or gaps DEL508-508): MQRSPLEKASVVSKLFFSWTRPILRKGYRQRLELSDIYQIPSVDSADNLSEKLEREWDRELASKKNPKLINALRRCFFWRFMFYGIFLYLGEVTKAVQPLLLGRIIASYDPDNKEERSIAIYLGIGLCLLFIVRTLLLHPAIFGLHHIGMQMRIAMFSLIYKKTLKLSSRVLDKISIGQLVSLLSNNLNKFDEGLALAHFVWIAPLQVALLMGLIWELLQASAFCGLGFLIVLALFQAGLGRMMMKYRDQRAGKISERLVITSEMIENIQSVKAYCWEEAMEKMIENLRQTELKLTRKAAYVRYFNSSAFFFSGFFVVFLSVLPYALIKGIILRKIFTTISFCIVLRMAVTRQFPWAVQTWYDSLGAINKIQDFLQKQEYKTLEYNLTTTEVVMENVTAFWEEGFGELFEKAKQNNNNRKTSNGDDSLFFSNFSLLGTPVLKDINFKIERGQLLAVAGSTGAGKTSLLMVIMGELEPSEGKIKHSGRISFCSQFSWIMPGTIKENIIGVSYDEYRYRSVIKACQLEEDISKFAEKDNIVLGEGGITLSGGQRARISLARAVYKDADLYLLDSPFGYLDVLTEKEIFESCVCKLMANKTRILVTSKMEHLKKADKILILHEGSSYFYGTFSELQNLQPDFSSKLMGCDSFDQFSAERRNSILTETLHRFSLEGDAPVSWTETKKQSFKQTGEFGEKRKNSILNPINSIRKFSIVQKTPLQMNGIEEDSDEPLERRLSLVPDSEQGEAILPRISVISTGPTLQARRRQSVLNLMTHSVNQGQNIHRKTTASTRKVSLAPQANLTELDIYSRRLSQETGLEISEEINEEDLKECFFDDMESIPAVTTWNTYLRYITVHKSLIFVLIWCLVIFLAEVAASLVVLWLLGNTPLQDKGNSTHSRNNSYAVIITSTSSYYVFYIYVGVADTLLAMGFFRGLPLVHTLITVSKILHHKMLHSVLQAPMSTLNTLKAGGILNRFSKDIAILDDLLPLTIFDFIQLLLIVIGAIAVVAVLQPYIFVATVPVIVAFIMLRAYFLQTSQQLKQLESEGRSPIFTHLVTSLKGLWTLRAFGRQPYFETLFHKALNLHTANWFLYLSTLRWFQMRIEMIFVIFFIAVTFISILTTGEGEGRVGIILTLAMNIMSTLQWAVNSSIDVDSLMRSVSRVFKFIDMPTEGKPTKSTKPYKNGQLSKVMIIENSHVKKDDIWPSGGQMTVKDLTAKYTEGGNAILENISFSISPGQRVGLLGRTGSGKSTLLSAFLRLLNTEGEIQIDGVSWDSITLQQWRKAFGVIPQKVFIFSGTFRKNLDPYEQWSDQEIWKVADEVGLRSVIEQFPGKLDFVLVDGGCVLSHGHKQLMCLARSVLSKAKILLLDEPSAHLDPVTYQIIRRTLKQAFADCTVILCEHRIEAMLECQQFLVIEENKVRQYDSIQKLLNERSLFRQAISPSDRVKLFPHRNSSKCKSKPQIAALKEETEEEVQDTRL
assay text: Membrane potential optical assay (FRET/VIPR), identification of correction compounds
pEC50: −log10 of the molar value.
pEC50 overview

As a guide, the following entries are already answered.
molecule: CCc1nc2ccc(Cl)cc2c(=O)n1C [compound 88]
experimental value: 4.22 to 4.60
--
molecule: CC(NC1CCN(S(=O)(=O)c2ccc(Cl)cc2)CC1)c1nc2ccccc2c(=O)n1C (centres unmarked) [compound 209]
experimental value: 4.60 to 5.00
--
molecule: COc1ccc(S(=O)(=O)N2CCN(C(C)c3nc4ccccc4c(=O)n3CC(C)C)CC2)cc1 (centres unmarked) [compound 331]
experimental value: > 5.00
--
molecule: CCOC(=O)c1cnc(C(C)N2CCN(S(=O)(=O)c3ccc(OC)cc3)CC2)nc1OC1CCCC1 (centres unmarked) [compound 362]
experimental value: > 5.00
--
molecule: Cc1c(S(=O)(=O)N2CCN(C(C)c3nc4ccccc4c(=O)n3C)CC2)sc2ccc(F)cc12 (centres unmarked) [compound 290]
experimental value: 4.22 to 4.60

Query string: Param readout= pEC50; system= ΔF508-CFTR (Homo sapiens, UniProt P13569, DEL508-508); entry= COc1ccc(C(=O)N2CCN(C(C)c3nc4cc(Cl)ccc4c(=O)n3C)CC2)cc1 (centres unmarked) [compound 122] ; returns value.
Result string: 4.60 to 5.00

Query string: And for CC(c1nc2ccccc2c(=O)n1C)N1CCN(S(=O)(=O)c2cccc3cnccc23)CC1 (centres unmarked) [compound 251] ?
Result string: 4.22 to 4.60

Query string: And for CC(c1nc2ccccc2c(=O)n1C)N1CCN(S(=O)(=O)c2ccc(C(N)=O)cc2)CC1 (centres unmarked) [compound 291] ?
Result string: 4.22 to 4.60

Query string: And for CC(c1nc2ccccc2c(=O)n1C)N1CCN(S(=O)(=O)c2ccc(-c3cc(C(F)(F)F)nn3C)s2)CC1 (centres unmarked) [compound 258] ?
Result string: 4.22 to 4.60

Query string: And for CCCn1c([C@H](C)N2CCN(S(=O)(=O)c3ccc(Br)cc3)CC2)nc2ccccc2c1=O [compound 147] ?
Result string: > 5.00

Query string: And for CCNc1nc(C(C)N2CCN(S(=O)(=O)c3ccc(Br)cc3)CC2)nc2ccccc12 (centres unmarked) [compound 221] ?
Result string: 4.22 to 4.60

Query string: And for CC(c1nc2ccccc2c(=O)n1C)N(C[C@@H]1CCCCN1S(=O)(=O)c1ccc(Br)cc1)S(=O)(=O)c1ccc(Br)cc1 (some centres unmarked) [compound 204] ?
Result string: 4.22 to 4.60

Query string: And for COc1cc2nc(C(C)N3CCN(S(=O)(=O)c4ccc(C)cc4)CC3)n(C)c(=O)c2cc1OC (centres unmarked) [compound 286] ?
Result string: 4.22 to 4.60

Query string: And for COc1ccc(S(=O)(=O)N2CCN(C(C)c3nc(N4CC=CC4)c4ccccc4n3)CC2)cc1 (centres unmarked) [compound 391] ?
Result string: 4.60 to 5.00
